assay: Human HepG2 cell viability assay in 384 well format; assay type: toxicity, cell-based; design: dose 125 nL, time 70.5 hour; concentration not given beside the values; conditions: HepG2 cells, read-out: Inhibition
So I've got a bunch of compounds here, and I need their cytotoxicity at 70.5 h values.
Numeric only. Scale: %

Item COc1ccc(CC(=O)N2CCCC2Cn2cccn2)cc1F (stereo not drawn) : provide cytotoxicity at 70.5 h -9.94

Item `Cc1ccc(C#N)c(N2CCC3(CCC(=O)N(CC(N)=O)C3)CC2)n1` : provide cytotoxicity at 70.5 h -9.24

Item CC(NCc1ccccn1)c1cc2c(cc1Br)OCCO2 (stereo not drawn) : provide cytotoxicity at 70.5 h -4.31

Item `Cc1ccc(CN(C)C(=O)CN2CC(n3cccn3)C2)o1` : provide cytotoxicity at 70.5 h 23.5

Item `CO[C@@H]1CCN(C(=O)Cc2ccsc2)[C@H]1Cc1cccnc1` : provide cytotoxicity at 70.5 h -5.91

Item Cc1cnn(CC2CN(Cc3cccnc3)CCO2)c1 (stereo not drawn) : provide cytotoxicity at 70.5 h -6.35

Item Cc1ccc(S(=O)(=O)NC(C)C#N)cc1Br (stereo not drawn) : provide cytotoxicity at 70.5 h -3.42

Item CCn1cnnc1CNC(=O)NC(C)c1ccccn1 (stereo not drawn) : provide cytotoxicity at 70.5 h 9.12

Item O=C(c1ccncc1Cl)N1CCN(Cc2ccco2)C(CCO)C1 (stereo not drawn) : provide cytotoxicity at 70.5 h 16.2

Item O=C(NCC1CCOC1)Nc1ccc(OCC(F)(F)F)nc1 (stereo not drawn) : provide cytotoxicity at 70.5 h -10.7

Item Cc1cc(C)n(CC2CCCN2C(=O)c2ccc(NC3CC3)nc2)n1 (stereo not drawn) : provide cytotoxicity at 70.5 h 20.6

Item `COc1ccc(CCNC(=O)c2ccc(=O)n(C)c2)c(Cl)c1` : provide cytotoxicity at 70.5 h -7.56

Item CC1CCCN(C(=O)c2ncncc2Cl)C1 (stereo not drawn) : provide cytotoxicity at 70.5 h 12.9

Item CC(C)(C)c1nc(CN2CCCC2c2nnc3ccccn23)no1 (stereo not drawn) : provide cytotoxicity at 70.5 h -22.6

Item `CCc1ccc(S(=O)(=O)N2CC[C@@](O)(CCOC)[C@H](C)C2)cc1` : provide cytotoxicity at 70.5 h -10.2

Item `Cc1nc(CN2CCC(C(=O)O)(n3ccc(-c4ccco4)n3)CC2)co1` : provide cytotoxicity at 70.5 h -7.1

Item `Cc1noc(C)c1CN1CCc2ncnc(-c3cnn(C)c3)c2CC1` : provide cytotoxicity at 70.5 h -8.16

Item CC(C)Oc1ccc(NCc2ccc([S+](C)[O-])cc2)c(F)c1 (stereo not drawn) : provide cytotoxicity at 70.5 h 7.01

Item COCCCN(Cc1ccccn1)Cc1ccnn1C1CCCCO1 (stereo not drawn) : provide cytotoxicity at 70.5 h 13.4

Item CC(C)c1cc(C2CCCN2C(=O)CN2C(=O)OC(C)(C)C2=O)no1 (stereo not drawn) : provide cytotoxicity at 70.5 h -9.43

Item c1cc(CN2CCCC(c3noc(C4CC4)n3)C2)no1 (stereo not drawn) : provide cytotoxicity at 70.5 h 3.46

Item CCc1cc(C)c(C(=O)N2CCCC2CC(=O)c2cnn(C)c2)o1 (stereo not drawn) : provide cytotoxicity at 70.5 h 6.36

Item `O=C(Cc1cccs1)Nc1cnn(C2CCOCC2)c1` : provide cytotoxicity at 70.5 h -12.8

Item `Cc1cnc(N2CCn3cc(CNC(=O)CC4CC4)nc3C2)nc1` : provide cytotoxicity at 70.5 h 25.9

Item `N#Cc1ccc(OC[C@]23COC[C@H]2CN(Cc2ccccn2)C3)nc1` : provide cytotoxicity at 70.5 h 0.477

Item Cc1ccc(C(C)NC(=O)N2CCCN(CC(F)F)CC2)s1 (stereo not drawn) : provide cytotoxicity at 70.5 h -2.75

Item `Nc1ccnc(N2C[C@@H]3CC[C@H](C2)N(CC2CCC2)C3=O)n1` : provide cytotoxicity at 70.5 h -3.52

Item CC1(Cc2ccc(F)cc2)Cc2cc(C(=O)NCCO)ccc2O1 (stereo not drawn) : provide cytotoxicity at 70.5 h -0.493

Item O=C(NCCCN1CCN(c2ncccn2)CC1)NCC1CCCO1 (stereo not drawn) : provide cytotoxicity at 70.5 h -3.85

Item `C1CCCN(c2nc(C3CC3)ns2)CC1` : provide cytotoxicity at 70.5 h 15.3

Item `CS(=O)(=O)C1CCN(S(=O)(=O)Cc2cccc(F)c2)CC1` : provide cytotoxicity at 70.5 h 0.12

Item `Cc1nn(CC(C)C)c(N(C)C)c1CNCCS(C)(=O)=O` : provide cytotoxicity at 70.5 h 5.47

Item `CC(C)COC(=O)N1[C@@H](c2ccco2)[C@@H](CO)C[C@]12CCCCNC2=O` : provide cytotoxicity at 70.5 h -9.55

Item Cc1cc(C(NC(=O)CNS(C)(=O)=O)C(C)C)c(C)s1 (stereo not drawn) : provide cytotoxicity at 70.5 h 1.39

Item `COc1ncccc1CNc1snc(Cl)c1C#N` : provide cytotoxicity at 70.5 h -103

Item Fc1cccnc1N1CCC(NCc2cccc3cn[nH]c23)C1 (stereo not drawn) : provide cytotoxicity at 70.5 h 3.51

Item CCC(C)(C)C1CCCN1C(=O)c1coc(S(=O)(=O)NC)c1 (stereo not drawn) : provide cytotoxicity at 70.5 h 6.9

Item `CCNC(=O)CCc1c(C)nc2cc(O)nn2c1C` : provide cytotoxicity at 70.5 h -5

Item COCCNC(C)c1ccc(-c2cccnc2)cc1 (stereo not drawn) : provide cytotoxicity at 70.5 h 0.821

Item `CC(=O)N1CCN([C@@H]2CC[C@@H](N(C)C(=O)C3CCCCC3)[C@H]2O)CC1` : provide cytotoxicity at 70.5 h -5.4

Item `CCc1nccn1CCCNC(=O)CN1CCN(c2ncccn2)CC1` : provide cytotoxicity at 70.5 h -7.13

Item `CN(C(=O)c1cccc2[nH]ncc12)C1CCN(c2ccccn2)CC1` : provide cytotoxicity at 70.5 h 31.6

Item Cc1ccc(C(=O)N2CCCC3(C2)C(=O)N(C)c2ccccc23)c(=O)[nH]1 (stereo not drawn) : provide cytotoxicity at 70.5 h -10.2

Item `NC(=O)CN1CCC(NC(=O)Nc2nccs2)CC1` : provide cytotoxicity at 70.5 h 21.5

Item `CCc1c(C)sc2nc3n(CC(N)=O)nc(SC)n3c(=O)c12` : provide cytotoxicity at 70.5 h 5.38

Item `CC(=O)NCCCNC(=O)Nc1ccccc1-n1nc(C)cc1C` : provide cytotoxicity at 70.5 h 0.874

Item `CCn1cnnc1CNC(=O)N1CCCC1` : provide cytotoxicity at 70.5 h 5.61

Item `CN(C)CCO[C@H]1CN(C(=O)c2ccc[nH]2)[C@@H]2COC[C@H]12` : provide cytotoxicity at 70.5 h -11.1

###

experiment: Human HepG2 cell viability assay in 384 well format; type: toxicity, cell-based; set-up: dose 125 nL, time 70.5 hour; concentration not given beside the values; details: HepG2 cells, read-out: Inhibition
reported.metric: cytotoxicity at 70.5 h

Item CCc1nnsc1C(=O)NCCC1CCCN(C(C)C)C1 (stereo not drawn) : provide cytotoxicity at 70.5 h 24.8%

Item CCC(NC(=O)CN(C)Cc1ccc(C)o1)c1ccc(C)cc1 (stereo not drawn) : provide cytotoxicity at 70.5 h -10.3%

Item CNC(=O)C1(c2cnccn2)CCCN1C(=O)c1cccc(F)c1 (stereo not drawn) : provide cytotoxicity at 70.5 h 20.4%

Item CCC(C)Oc1cc(C(=O)N(c2cccnc2)C(C)C)ccn1 (stereo not drawn) : provide cytotoxicity at 70.5 h 0.858%

Item `O[C@@H]1CN(c2noc(C3CC3)n2)CC[C@H]1c1ccc2ccccc2c1` : provide cytotoxicity at 70.5 h 17.6%

Item Cc1nn(C)c(C)c1C1CCCN1Cc1cccc(OCC(N)=O)c1 (stereo not drawn) : provide cytotoxicity at 70.5 h -7.47%

Item CC(NC(=O)CCCc1nc(C(C)(C)C)no1)c1ccccn1 (stereo not drawn) : provide cytotoxicity at 70.5 h 10.9%

Item CC(NC(=O)NCCCc1n[nH]c(N)c1C#N)c1ccc(Cl)cc1 (stereo not drawn) : provide cytotoxicity at 70.5 h -0.0754%

Item `O=C1OCCN1CC(=O)N1C[C@H]2CC[C@@H]1CN(C(=O)c1ccccc1)C2` : provide cytotoxicity at 70.5 h 2.12%

Item `CCOc1ccc(Cl)cc1CCNC(=O)Cn1nc(C)ccc1=O` : provide cytotoxicity at 70.5 h 7.64%

Item Cc1ccc(C(CNCc2ncc[nH]2)N2CCOCC2)s1 (stereo not drawn) : provide cytotoxicity at 70.5 h -12.7%

Item CC(C)(C)c1nccc(N2CCCCC2CCNS(C)(=O)=O)n1 (stereo not drawn) : provide cytotoxicity at 70.5 h 2.95%

Item `COCc1nc(-c2ccc(S(=O)(=O)N3CCCC3)cc2)cs1` : provide cytotoxicity at 70.5 h -3.85%

Item `O=C(COc1ccc(Br)cc1F)Nc1cn[nH]c1` : provide cytotoxicity at 70.5 h 15.8%

Item CS(=O)(=O)N1CCO[C@@H]2CN(C(=O)C3CCOC3)CC[C@@H]2C1 (stereo partly drawn) : provide cytotoxicity at 70.5 h -6.14%

Item `O=C(NCc1cnc2n1CCN(CC1CC1)C2)C1CC1` : provide cytotoxicity at 70.5 h 28%

Item `CCn1cnnc1CN(C)Cc1c[nH]nc1-c1ccc(F)cc1` : provide cytotoxicity at 70.5 h -1.22%

Item Cn1ccnc1COc1ccc(NC(=O)CCC2CCCO2)cc1 (stereo not drawn) : provide cytotoxicity at 70.5 h -5.92%

Item `Cc1noc(C(C)C)c1C(=O)NCCCN1CCCC1` : provide cytotoxicity at 70.5 h -6.55%

Item c1cncc(COCC2CN(Cc3ccncc3)Cc3ccnn3C2)c1 (stereo not drawn) : provide cytotoxicity at 70.5 h 1.86%

Item CCc1cnc(C(C)NC(=O)N2CCCN(CC(F)F)CC2)s1 (stereo not drawn) : provide cytotoxicity at 70.5 h -4.42%

Item `O=C1CCC2(CCN(Cc3ncccn3)CC2)CN1CCCO` : provide cytotoxicity at 70.5 h -8.14%

Item CS(=O)(=O)c1cnc(CC2CC2)nc1C1CCCNC1 (stereo not drawn) : provide cytotoxicity at 70.5 h 19.7%

Item `O=C(Nc1cccnc1)[C@H]1CO[C@H]2CCNC[C@H]2C1` : provide cytotoxicity at 70.5 h 0.847%

Item `CCc1ncc2c(n1)CN(CC(=O)NCCOc1ccccc1)CC2` : provide cytotoxicity at 70.5 h -5.27%

Item COc1c(C2CCCN2C(=O)c2sc(C)nc2C)c(C)nn1C (stereo not drawn) : provide cytotoxicity at 70.5 h 10.6%

Item `Cc1ccc2nc3n(c2c1)[C@@H](CNCc1nccs1)COC3` : provide cytotoxicity at 70.5 h -5.06%

Item CCC1CCCCCN1C(=O)c1nnc2ccccc2c1N (stereo not drawn) : provide cytotoxicity at 70.5 h -2.66%

Item `O=C(c1cc2c(s1)CCC2)N1CCC(c2ccncc2)CC1` : provide cytotoxicity at 70.5 h 15.8%

Item CN(CC(O)CO)C(=O)c1coc(COc2cccc(F)c2)n1 (stereo not drawn) : provide cytotoxicity at 70.5 h 8.53%

Item `CN(C)CCN1CCOC2(CCN(c3nccs3)CC2)c2ccccc21` : provide cytotoxicity at 70.5 h 28.7%

Item COCC1CN(C(=O)c2ccnnc2)Cc2c1cnn2C (stereo not drawn) : provide cytotoxicity at 70.5 h -1.23%

Item `Cc1cc(-c2cnn(C)c2)ccc1OCC(N)=O` : provide cytotoxicity at 70.5 h -2.62%

Item `O=C1[C@@H]2CCN(C3CCOCC3)C[C@@H]2OCCN1Cc1cccnc1` : provide cytotoxicity at 70.5 h -16%

Item O=C(CCc1ccc(=O)[nH]n1)N1CCCC(COc2ccc(F)cc2)C1 (stereo not drawn) : provide cytotoxicity at 70.5 h -1.69%

Item `Cc1cc(F)cc2c(N3CCS(=O)(=O)CC3)c(C#N)cnc12` : provide cytotoxicity at 70.5 h 0.465%

Item `CS(=O)(=O)Cc1noc(CN2CCc3c(Cl)cccc3C2)n1` : provide cytotoxicity at 70.5 h -79.4%

Item `CCN(CC)C(=O)c1ccc(Cl)c(NC(=O)c2cc(C(C)C)on2)c1` : provide cytotoxicity at 70.5 h -12.4%

Item COc1ccc2c(C)c(C(=O)NC3CCCOC3)oc2c1 (stereo not drawn) : provide cytotoxicity at 70.5 h -4.44%

Item Cc1cc2nc(C(C)C)cc(N(C)CC3CCCN(CCO)C3)n2n1 (stereo not drawn) : provide cytotoxicity at 70.5 h -2.47%

Item `COc1cc(N2C[C@@H]3COC[C@]3(COCc3cccc(C)n3)C2)ncn1` : provide cytotoxicity at 70.5 h -0.577%

Item CC(C)NC(=O)C1(CC2CC(c3ccc(F)cc3)=NO2)CCNCC1 (stereo not drawn) : provide cytotoxicity at 70.5 h 24.3%

Item CCOc1nnc(CNC2CCCN(c3ccc(C)nn3)C2)s1 (stereo not drawn) : provide cytotoxicity at 70.5 h -1.05%

Item `Cc1cc(SCC(N)=O)nc(-c2ccc(F)cc2)n1` : provide cytotoxicity at 70.5 h -9.61%

Item `OCC(CO)Nc1ccc2c(Cl)ccc(Cl)c2n1` : provide cytotoxicity at 70.5 h -1%

Item `Clc1cccc(-n2cnnn2)c1N1CCCCC1` : provide cytotoxicity at 70.5 h 29.1%

Item COCCn1cc2c(n1)C(CNC(=O)c1cc(C)[nH]c1C)OCC2 (stereo not drawn) : provide cytotoxicity at 70.5 h -2.66%

Item `COCCN(C)c1ccc(NCc2cccnc2)nc1` : provide cytotoxicity at 70.5 h 5.65%
